Target: recombinant human OX40 (Acro Biosystems, cat. no. OXO-H5224) (human) (UniProt P43489)
Sequence (P43489 29-216 limits assumed): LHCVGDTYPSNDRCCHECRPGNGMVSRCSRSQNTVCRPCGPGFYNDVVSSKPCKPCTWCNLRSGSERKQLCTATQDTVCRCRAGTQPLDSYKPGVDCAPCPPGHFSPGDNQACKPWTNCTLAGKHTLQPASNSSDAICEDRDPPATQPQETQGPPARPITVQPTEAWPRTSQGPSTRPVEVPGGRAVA
Assay: BLI cross-block; competitor (immobilized 1st Ab): IgG1-CD134-h3C8
value type: corrected association response (nm)
Record the value in nm, omitting the unit from your answer.

Below: 2 binders and their reported corrected association response.
IgG1-CD134-MEDI0562 (antibody, INN chains, looked up, V domains shown, IgG1) VH: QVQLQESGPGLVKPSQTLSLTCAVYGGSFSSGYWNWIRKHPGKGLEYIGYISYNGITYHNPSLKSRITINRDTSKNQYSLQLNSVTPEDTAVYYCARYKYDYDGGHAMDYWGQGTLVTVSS VL: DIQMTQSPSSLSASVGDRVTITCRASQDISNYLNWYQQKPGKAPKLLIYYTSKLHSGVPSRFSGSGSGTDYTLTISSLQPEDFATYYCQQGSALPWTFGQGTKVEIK    0.54
IgG1-CD134-RG7888 (antibody, INN chains, looked up, V domains shown, IgG1) VH: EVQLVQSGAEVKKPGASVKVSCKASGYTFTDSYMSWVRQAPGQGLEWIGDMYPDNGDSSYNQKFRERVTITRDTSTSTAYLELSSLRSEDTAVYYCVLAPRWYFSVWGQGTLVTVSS VL: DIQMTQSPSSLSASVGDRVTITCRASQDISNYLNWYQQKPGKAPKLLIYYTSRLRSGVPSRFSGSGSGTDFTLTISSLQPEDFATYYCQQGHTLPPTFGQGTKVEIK    0.41

Q: Tell us which corrected association response value is on record for IgG1-CD134-ABBV368 (antibody, INN chains, looked up, V domains shown, IgG1) VH: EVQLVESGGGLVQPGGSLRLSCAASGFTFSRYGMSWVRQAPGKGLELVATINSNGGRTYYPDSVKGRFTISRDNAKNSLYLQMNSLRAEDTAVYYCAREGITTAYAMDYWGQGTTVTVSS VL: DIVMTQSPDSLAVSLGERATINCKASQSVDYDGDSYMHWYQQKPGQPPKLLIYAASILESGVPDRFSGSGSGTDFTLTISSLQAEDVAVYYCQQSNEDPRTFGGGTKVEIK
Result: -0.03

Q: Input IgG1-CD134-GBR830 (antibody, INN chains, looked up, V domains shown, IgG1) VH: QVTLKESGPALVKPTQTLTLTCSFSGFSLSTSGMGVGWIRQPPGKALEWIAHIWWDDDKYYNTALKTRLTISKDTSKNQVVLTMTNMDPVDTATYYCARIDWDGFAYWGQGTLVTVSS VL: EIVLTQSPATLSLSPGERATLSCRASSSVSYMHWYQQKPGQAPRPWIYATSNRATGIPARFSGSGSGTDYTLTISSLEPEDFAVYYCQQWSSNPWTFGQGTKVEIK , output reported corrected association response.
Result: -0.02
